Where do these numbers come from? They come from paper PMC7998721.

target: β-amyloid Aβ21–40 (C-terminal fragment of Aβ1–40) (Homo sapiens, UniProt P05067); construct: gene APP; assay: UV/Vis titration; ESI-MS […] adduct; also ThT aggregation; format: binding
Sequence (P05067 692-711): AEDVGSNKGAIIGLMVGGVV
quantity.measured: pEC50
# pEC50 is unitless: minus log10 of the molar concentration; print number only

Please report pEC50 for the following molecule: [Cl][Pt-2]1([Cl])[n+]2cccc3ccc4ccc[n+]1c4c32 [Pt-phen] 4.31
